Parameter: % of Control (Melanin Synthesis). Scope: all listed entries.
Tested on: mushroom tyrosinase
Construct: mushroom tyrosinase (Sigma T-7755)
Assay: Mushroom Tyrosinase Assay
Type: biochemical
Conditions: Table 9, Concentration 1 micro M

Below, 4 molecules whose answers are already recorded.
# STRUCTURE_STRING, ASSAY_VALUE
measured = [
    ("Cc1cc(O)cc(O)c1C", "95 % of Control"),
    ("CCc1ccc(O)cc1O", "32 % of Control"),
    ("Oc1cccc(O)c1", "98 % of Control"),
    ("CC(C)c1cc(C(C)C)c(O)cc1O", "48 % of Control"),
]

Record CC(C)c1ccc(O)cc1O , field % of Control (Melanin Synthesis): 27 % of Control

====

Target: mushroom tyrosinase
Construct: mushroom tyrosinase (Sigma T-7755)
Assay: Mushroom Tyrosinase Assay
Settings: L-DOPA substrate, absorbency at 475 nm, pH 7.0; read-out: IC50 (skin lightener concentration that results in 50% tyrosinase inhibition relative to the control)
QUANTITY_MEASURED: pIC50
The scale used: pIC50 is minus the common logarithm of the concentration in molar units.

# STRUCTURE_STRING, ASSAY_VALUE
data = [
    ("CC(C)c1cc(C(C)C)c(O)cc1O", 6.12),
]

Record CCc1ccc(O)cc1O , field pIC50: 6.46

====

Parameter: % of Control (Melanin Synthesis). Scope: all listed entries.
Test system: mushroom tyrosinase
Construct: mushroom tyrosinase (Sigma T-7755)
Test: Mushroom Tyrosinase Assay
Type: biochemical
Details: Table 9, Concentration 10 micro M

Below, 3 compounds whose answers are already recorded.
# STRUCTURE_STRING, ASSAY_VALUE
measured = [
    ("Cc1cc(O)cc(O)c1C", "51 % of Control"),
    ("CC(C)c1cc(C(C)C)c(O)cc1O", "29 % of Control"),
    ("CCc1ccc(O)cc1O", "25 % of Control"),
]

Record CC(C)c1ccc(O)cc1O , field % of Control (Melanin Synthesis): 29 % of Control

Record Oc1cccc(O)c1 , field % of Control (Melanin Synthesis): 98 % of Control

====

System: mushroom tyrosinase
Construct: mushroom tyrosinase (Sigma T-7755)
Test: Mushroom Tyrosinase Assay
Format: biochemical
Conditions: Table 9, Concentration 100 micro M
QUANTITY_MEASURED: % of Control (Melanin Synthesis)

Record CCc1ccc(O)cc1O [4-Ethyl Resorcinol, 4-ethyl resorcinol] , field % of Control (Melanin Synthesis): 18 % of Control

====

Test system: mushroom tyrosinase
Construct: mushroom tyrosinase (Sigma T-7755)
Test: Mushroom Tyrosinase Assay
Type: biochemical
Settings: Table 9, Concentration 50 micro M
QUANTITY_MEASURED: % of Control (Melanin Synthesis)

Below, 4 molecules whose answers are already recorded.
# STRUCTURE_STRING, TESTED_ON, % of Control (Melanin Synthesis)
data = [
    ("CCc1ccc(O)cc1O", "mushroom tyrosinase", "21 % of Control"),
    ("CC(C)c1ccc(O)cc1O", "mushroom tyrosinase", "29 % of Control"),
    ("Oc1cccc(O)c1", "mushroom tyrosinase", "100 % of Control"),
    ("CC(C)c1cc(C(C)C)c(O)cc1O", "mushroom tyrosinase", "34 % of Control"),
]

Record Cc1cc(O)cc(O)c1C , field % of Control (Melanin Synthesis): 35 % of Control

====

Tested on: mushroom tyrosinase
Construct: mushroom tyrosinase (Sigma T-7755)
Test: Mushroom Tyrosinase Assay
Assay type: biochemical
Conditions: Table 9, Concentration 100 micro M
QUANTITY_MEASURED: % of Control (Melanin Synthesis)

Below, 3 compounds whose answers are already recorded.
# STRUCTURE_STRING, % of Control (Melanin Synthesis)
records = [
    ("Oc1cccc(O)c1", "100 % of Control"),
    ("CC(C)c1ccc(O)cc1O", "30 % of Control"),
    ("Cc1cc(O)cc(O)c1C", "15 % of Control"),
]

Field: next compound
The recorded % of Control (Melanin Synthesis) with mushroom tyrosinase for CC(C)c1cc(C(C)C)c(O)cc1O was 39 % of Control
